Melanocortin receptor 3 (Mus musculus, UniProt P33033): reported pKi for various compounds.
Sequence (P33033 whole entry): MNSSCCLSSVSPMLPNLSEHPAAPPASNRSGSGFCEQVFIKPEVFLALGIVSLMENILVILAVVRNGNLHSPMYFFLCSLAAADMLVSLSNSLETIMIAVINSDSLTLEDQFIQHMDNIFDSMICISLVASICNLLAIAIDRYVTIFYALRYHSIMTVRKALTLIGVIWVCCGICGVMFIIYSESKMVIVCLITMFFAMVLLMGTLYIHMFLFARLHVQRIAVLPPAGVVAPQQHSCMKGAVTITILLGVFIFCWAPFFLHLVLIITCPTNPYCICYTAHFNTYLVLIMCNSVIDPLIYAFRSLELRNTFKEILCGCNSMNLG
pKi: −log10 of the molar value.
value_kind: pKi

compound="C[C@@H]1NC(=O)[C@H](CC(N)=O)NC(=O)C(Cc2cccc3ccccc23)NC(=O)[C@H](Cc2ccccc2)NC(=O)[C@H](CCCNC(=N)N)NC(=O)[C@@H]2CCCN2C(=O)[C@H]2CCCN2C(=O)[C@H](Cc2ccccc2)NC1=O (some centres undefined)" value_kind=pKi measured_result=5.60
compound=C[C@@H]1NC(=O)CNC(=O)[C@H](Cc2ccccc2)NC(=O)[C@H](Cc2ccccc2)NC(=O)[C@H](CCCNC(=N)N)NC(=O)[C@@H]2CCCN2C(=O)[C@H]2CCCN2C(=O)[C@H](Cc2ccccc2)NC1=O value_kind=pKi measured_result=7.60
compound="C[C@@H]1NC(=O)C(CN)NC(=O)[C@H](Cc2ccccc2)NC(=O)[C@H](Cc2ccccc2)NC(=O)[C@H](CCCNC(=N)N)NC(=O)[C@@H]2CCCN2C(=O)[C@H]2CCCN2C(=O)[C@H](Cc2ccccc2)NC1=O (some centres undefined)" value_kind=pKi measured_result=6.89
compound="C[C@@H]1NC(=O)C(CCN)NC(=O)[C@H](Cc2ccccc2)NC(=O)[C@H](Cc2ccccc2)NC(=O)[C@H](CCCNC(=N)N)NC(=O)[C@@H]2CCCN2C(=O)[C@H]2CCCN2C(=O)[C@H](Cc2ccccc2)NC1=O (some centres undefined)" value_kind=pKi measured_result=7.00

====

Listed here: items and their measured Kb.
- tested_system: Melanocortin receptor 3 (Mus musculus, UniProt P33033)
- test_summary: Displacement of MTII from mouse MC3R expressed in HEK293 cells
- Assay type: cell-based
- experimental_context: read-out: pA2 (converted)
Where a SMILES comes first, the peptide text is derived from it. Bridges are numbered along the chain shown (N, C = ends). [ ]: non-standard residue; d: D form.
value_kind: Kb (nM)

compound="C[C@@H]1NC(=O)[C@H](CC(N)=O)NC(=O)C(Cc2cccc3ccccc23)NC(=O)[C@H](Cc2ccccc2)NC(=O)[C@H](CCCNC(=N)N)NC(=O)[C@@H]2CCCN2C(=O)[C@H]2CCCN2C(=O)[C@H](Cc2ccccc2)NC1=O (stereo partly drawn)" measured_result=2510
compound="C[C@@H]1NC(=O)[C@H](CC(N)=O)NC(=O)[C@H](Cc2ccccc2)NC(=O)[C@H](Cc2ccccc2)NC(=O)[C@H](CCCNC(=N)N)NC(=O)[C@H]([C@@H](C)O)NC(=O)[C@H](Cc2ccc(O)cc2)NC(=O)[C@@H]2CCCN2C(=O)[C@H]2CCCN2C(=O)[C@H](Cc2ccc(O)cc2)NC(=O)[C@H]([C@@H](C)O)NC(=O)[C@H](Cc2ccccc2)NC1=O (cyclo(YTRFFNAFTY[dP]P))" measured_result=1260
compound="C[C@H](NC(=O)[C@H](Cc1ccc(O)cc1)NC(=O)[C@@H]1CSSC[C@H](NC(=O)[C@H](Cc2ccc(O)cc2)NC(=O)[C@H](C)NC(=O)[C@@H](N)[C@@H](C)O)C(=O)N[C@@H](CCCNC(=N)N)C(=O)N[C@@H](Cc2ccccc2)C(=O)N[C@@H](Cc2ccccc2)C(=O)N[C@@H](CC(N)=O)C(=O)N[C@@H](C)C(=O)N[C@@H](Cc2ccccc2)C(=O)N1)C(=O)N[C@@H](CCCNC(=N)N)C(N)=O (H-TAYCRFFNAFCYAR-NH2; disulfide 4-11)" measured_result=794
